Would you mind telling me the reported IC50 of each entry?
- tgt: His-tagged NSD2 PWWP1 (Homo sapiens)
- protocol_description: TR-FRET cooperativity (competition) assay: displacement of biotinylated NSD2 ligand UNC7096
- Assay type: binding
- condition: compound alone (buffer, no FBXO22 FIST); tracer UNC7096; read-out: IC50, competitive TR-FRET, binding to NSD2 PWWP1
Answer with a number only, understood to be in nM.

Prompt line: Give the value of IC50 reported for the following: O=C1COc2cc(C(=O)N(Cc3ccc(C(=O)Nc4ccc5c(c4)CCN(C(=O)CCCCC(O)S(=O)(=O)O)C5)cc3)C3CC3)ccc2N1 (centres unmarked)
Response line: 248

Prompt line: Give the value of IC50 reported for the following: "O=Cc1ccc(C(=O)N2CCc3cc(NC(=O)c4ccc(CN(C(=O)c5ccc6c(c5)OCC(=O)N6)C5CC5)cc4)ccc3C2)cc1"
Response line: 159

* * *

- tgt: His-tagged NSD2 PWWP1 (Homo sapiens, UniProt O96028)
- Sequence (O96028 211-350): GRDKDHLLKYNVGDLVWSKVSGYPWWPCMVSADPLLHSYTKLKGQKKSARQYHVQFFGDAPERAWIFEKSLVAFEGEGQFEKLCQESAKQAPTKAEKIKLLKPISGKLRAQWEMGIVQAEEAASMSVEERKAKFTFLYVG
- protocol_description: TR-FRET cooperativity (competition) assay: displacement of biotinylated NSD2 ligand UNC7096
- Assay type: binding
- condition: FBXO22 FIST present, reagents not preincubated; read-out: IC50, competitive TR-FRET, in the presence of FBXO22 FIST without preincubation
parameter_measured: pIC50
Lab note: report pIC50 as minus log10 of the concentration in molar units, number only.

Prompt line: Give the value of pIC50 reported for the following: O=C1COc2cc(C(=O)N(Cc3ccc(C(=O)Nc4ccc5c(c4)CCN(C(=O)CCCCC(O)S(=O)(=O)O)C5)cc3)C3CC3)ccc2N1 (stereo not shown) [UNC10088]
Response line: 6.97
